# Target or test system: T1, TNFR1 (Homo sapiens, UniProt P19438)
# T1 chain: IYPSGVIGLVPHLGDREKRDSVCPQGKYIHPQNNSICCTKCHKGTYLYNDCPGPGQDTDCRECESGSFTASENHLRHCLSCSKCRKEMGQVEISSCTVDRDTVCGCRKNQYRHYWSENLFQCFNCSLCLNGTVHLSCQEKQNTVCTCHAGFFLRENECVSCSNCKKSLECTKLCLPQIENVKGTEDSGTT
# Protocol text: yeast display SC50
Assay readout: apparent Kd (screen) (nM)
Give bare numbers, in nM.

D65M (designed binder) MTLQELLREEALRRAEAEAFRYALELLAEKFPEQKEYLLDLAEEIESQIRSLSGVDVEDVRKFLMKEWAWVKELLAEHPAELAEVEAARAARLAELRAEVEAKVAA
0.718
E77G (designed binder) MTLQELLREEALRRAEAEAFRYALELLAEKFPEQKEYLLDLAEEIESQIRSLSGVDVEDVRKFLDKEWAWVKELLAGHPAELAEVEAARAARLAELRAEVEAKVAA
0.593

Kindly review the next binder as well.
binder E46N (designed binder) MTLQELLREEALRRAEAEAFRYALELLAEKFPEQKEYLLDLAEEINSQIRSLSGVDVEDVRKFLDKEWAWVKELLAEHPAELAEVEAARAARLAELRAEVEAKVAA , apparent Kd (screen) observed: 0.593
